# target.desc: UniProt:P52333
# Sequence (P52333 whole entry): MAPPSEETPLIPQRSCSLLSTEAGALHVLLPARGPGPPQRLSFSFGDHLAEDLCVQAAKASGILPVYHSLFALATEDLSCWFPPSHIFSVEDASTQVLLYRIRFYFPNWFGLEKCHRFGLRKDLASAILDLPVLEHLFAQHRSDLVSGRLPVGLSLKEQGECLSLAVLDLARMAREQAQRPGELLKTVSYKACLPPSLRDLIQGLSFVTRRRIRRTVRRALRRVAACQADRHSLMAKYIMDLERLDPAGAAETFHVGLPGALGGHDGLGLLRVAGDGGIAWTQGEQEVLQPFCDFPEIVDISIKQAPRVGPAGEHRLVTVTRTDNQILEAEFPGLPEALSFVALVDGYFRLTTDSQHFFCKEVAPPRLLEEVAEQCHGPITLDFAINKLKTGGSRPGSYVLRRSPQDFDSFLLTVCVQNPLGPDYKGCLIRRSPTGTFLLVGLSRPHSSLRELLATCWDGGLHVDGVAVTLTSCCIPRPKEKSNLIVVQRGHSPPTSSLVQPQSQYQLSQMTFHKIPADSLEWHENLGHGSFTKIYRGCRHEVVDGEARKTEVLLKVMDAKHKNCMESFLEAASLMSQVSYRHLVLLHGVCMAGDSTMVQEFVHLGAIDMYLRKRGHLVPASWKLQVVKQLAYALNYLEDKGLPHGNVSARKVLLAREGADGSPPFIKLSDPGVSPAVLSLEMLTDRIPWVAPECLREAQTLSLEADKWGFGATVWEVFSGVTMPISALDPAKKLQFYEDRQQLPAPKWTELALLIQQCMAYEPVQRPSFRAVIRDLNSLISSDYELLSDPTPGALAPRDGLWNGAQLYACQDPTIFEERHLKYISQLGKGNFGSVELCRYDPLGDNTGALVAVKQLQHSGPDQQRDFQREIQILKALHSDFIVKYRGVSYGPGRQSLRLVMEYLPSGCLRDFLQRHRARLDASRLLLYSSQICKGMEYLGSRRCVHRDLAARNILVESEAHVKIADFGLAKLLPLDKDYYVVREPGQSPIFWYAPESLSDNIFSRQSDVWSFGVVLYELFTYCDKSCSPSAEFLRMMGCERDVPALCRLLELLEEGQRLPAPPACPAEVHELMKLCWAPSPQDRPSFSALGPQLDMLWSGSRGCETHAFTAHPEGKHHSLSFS
# test.summary: Inhibition of a panel of kinases, in vitro HotSpot kinase assay: JAK3
# Type: biochemical
# settings: D-compounds panel data; 1 μM ATP; read-out: IC50 JAK3
measurement.label: IC50

Inquiry: Which value of IC50 has been reported for `Cc1cc(Nc2nc(N3C[C@H](NC(=O)c4ccc(C5CC5)cc4F)CC[C@H]3C)cnc2C(N)=O)sn1` in the records?
Reply text: 1000 to 10000 nM

Inquiry: Here is the next molecule: `C[C@@H]1[C@H](NC(=O)c2ccc(C3CC3)cc2)CCCN1c1cnc(C(N)=O)c(Nc2ccc(C3(C)CCN(C4CCCC4)CC3)cc2)n1`
Reply text: 100 to 1000 nM

Inquiry: Here is the next molecule: `C[C@@H]1[C@H](NC(=O)c2ccc(C3CC3)cc2F)CCCN1c1cnc(C(N)=O)c(Nc2ccc(N3CCNCC3)c(F)c2)n1`
Reply text: 100 to 1000 nM

Inquiry: Here is the next molecule: `C[C@@H]1[C@H](NC(=O)c2ccc(C3CC3)cc2)CCCN1c1cnc(C(N)=O)c(Nc2ccc(C3CCOCC3)cc2)n1`
Reply text: 1000 to 10000 nM

Inquiry: Here is the next molecule: `NC(=O)c1ncc(N2CCC[C@@H](n3ccc4cc(C5CC5)ccc4c3=O)C2)nc1Nc1ccc2ncccc2c1`
Reply text: > 10000 nM

// provenance: patent US20210070748A1
